Numbers sourced from patent US20240352105A1.

- assaySummary: Thermostability (Tm, Tonset, Tagg) by Nanotemper DSF
- Format: physicochemical
- assayContext: anti-Fel d1 VHH
Field: Tagg. Provide a value for each of the molecules that follow.
Numbers only.

# example entries with known answers
Asked: # get_value(readout='Tagg', item= SDAB22110-4-3-H02: anti-Fel d1 VHH clone, SEQ ID NO: 57 (protein) VHH: QLQLVESGGGLVQPGGSLRLSCEASGFTFKYYTMSWYRQAPGKERELVATITNGDRTNYADSVKGRFTISRDNAKNTLYLQMNSLKPYDTAVYYCNRHLPLLQIWGQGTQVTVSS )
Given back: 42.30

Asked: # get_value(readout='Tagg', item= SDAB22110-1-1-E4: anti-Fel d1 VHH clone, SEQ ID NO: 51 (protein) VHH: QLQLVESGGGLVQPGGSLRLSCTASGFTFSTAGTSWYRQSPGKARKLVAELSRIGGIANYADSVKGRFTISRDNTRNTVYLQMNSLKPEDTAVYYCKVVTNRNYGFTYWGQGTQVTVSS )
Given back: 42.78

Asked: # get_value(readout='Tagg', item= SDAB22110-3-1-D9-1: anti-Fel d1 VHH clone, SEQ ID NO: 52 (protein) VHH: AVQLVESGGGLVQPGGSLRLSCIISGFTSVSYSIVWFRQAPGKGREGVSCIGSSGGSTDYIDSVKGRFTISRDSAKNTVYLQMDCLKPEDTAVYYCAALRDVYRLCVIDYMNNDYWGQGTQVTVSS )
Given back: 42.30

Asked: # get_value(readout='Tagg', item= SDAB22110-4-3-E05: anti-Fel d1 VHH clone, SEQ ID NO: 55 (protein) VHH: QVQLVESGGGLVQPGGSLRLSCVGSGFTFSQYAMRWYRQVPGKARELVAAISRSGDFMYYADSVKGRFTISRDNVKSAVILQMNSLKPEDTAVYYCYGQATISDTLWGQGTQVTVSS )
Given back: 31.74

Asked: # get_value(readout='Tagg', item= SDAB22110-3-2-H08: anti-Fel d1 VHH clone, SEQ ID NO: 53 (protein) VHH: QVQLVESGGGLVQPGGSLRLSCAASGFTFSRKGMSWYRQVPGKEREWVARIYSTGEKTDYADSVKGRFTISRDNAKNMVYLDMNSLKPEDTAVYYCKAWGYEYWNQGTQVTVSS )
Given back: 35.68

New cases:
Asked: # get_value(readout='Tagg', item= SDAB22110-1-1-C3: anti-Fel d1 VHH clone, SEQ ID NO: 49 (protein) VHH: AVQLVESGGGLVQPGGSLRLSCAASGFTFTNYAMRWYRQAPGKERELVAAIPTSGGYTYTADSVKGRFTISRDNAKNTVYLQMNSLKPEDTAVYYCYGLRTLSDYYWGQGTQVTVSS )
Given back: 58.93
